Test system: Lactobacillus clearans
EXPERIMENT_NOTES: Viability of Lactobacillus clearans during storage with preservatives
EXPERIMENTAL_CONDITIONS: Lactobacillus clearans, 6 months
Threshold 20%. Changes over time during storage, Viability (%) 6 months below it: condition met. Changes over time during storage, Viability (%) 6 months at it or above: condition not met.

Worked examples follow.
COMPOUND	ASSIGNED_CLASS
NCCCC(=O)O	condition not met
N[C@@H](Cc1c[nH]c2ccccc12)C(=O)O [Tryptophan]	condition met
N[C@@H](CS)C(=O)O [Cysteine]	condition not met
NC(=O)C[C@H](N)C(=O)O [Asparagine]	condition not met
N=C(N)NCCC[C@H](N)C(=O)O [Arginine]	condition met
CSCC[C@H](N)C(=O)O [Methionine]	condition not met

Prompt: Quick check: does N[C@@H](CSSC[C@H](N)C(=O)O)C(=O)O [Cystine] have Changes over time during storage, Viability (%) 6 months under 20%?
Completion: condition not met

Prompt: Just wondering, is Changes over time during storage, Viability (%) 6 months of OC[C@H]1O[C@@H](O[C@H]2[C@H](O)[C@@H](O)C(O)O[C@@H]2CO)[C@H](O)[C@@H](O)[C@H]1O (stereo partly shown) [Lactose] below 20%?
Completion: condition not met

Prompt: Lab note: confirm whether the reported Changes over time during storage, Viability (%) 6 months for this compound is below 20%, equality not counting. compound: C[C@H](N)C(=O)O [Alanine]
Completion: condition met

Prompt: # strict comparison: is reported Changes over time during storage, Viability (%) 6 months < 20%? input = OC[C@H]1O[C@@](CO)(O[C@H]2O[C@H](CO)[C@@H](O)[C@H](O)[C@H]2O)[C@@H](O)[C@@H]1O [Sucrose]
Completion: condition met

Prompt: Is it true that Changes over time during storage, Viability (%) 6 months reported for NCCS(=O)(=O)O [Taurine] is less than 20%?
Completion: condition not met

Prompt: Please let me know if NCC(=O)O [Glycine] shows Changes over time during storage, Viability (%) 6 months below 20%.
Completion: condition met

Prompt: Identify whether the compound CC(C)C[C@H](N)C(=O)O [Leucine] records Changes over time during storage, Viability (%) 6 months below 20%.
Completion: condition met

----------
System: Lactobacillus clearans
EXPERIMENT_NOTES: Effect of substances added during subculture on titer of Lactobacillus clearans
Type: cell-based
EXPERIMENTAL_CONDITIONS: added to medium during subculture
REPORTED_METRIC: effect on titer of Lactobacillus clearans

SMILES_TEXT	ENDPOINT_VALUE
N[C@@H](CS)C(=O)O	extremely effective
Nc1nc2ncc(CNc3ccc(C(=O)N[C@@H](CCC(=O)O)C(=O)O)cc3)nc2c(=O)[nH]1	effective
NCCCC[C@H](N)C(=O)O	extremely effective
[Mn+2]	effective
